test: Cmax in rat at 3 mg/kg, po; assay type: ADME, organism-based; parameters: dose 3 mg/kg, route oral; details: in vivo
Observed Property: Cmax (ng/mL)
# unit: ng/mL | format: bare number

Q: Bench note: what Cmax did `O=C(O)c1ccc(S(=O)(=O)N(Cc2ccc(OC(F)(F)F)cc2)c2ncc(C(F)(F)F)cc2Cl)cc1` show?
Ans: 2300

* * *

molecular target: Transient receptor potential cation channel subfamily V member 4 (Homo sapiens, UniProt Q9HBA0); assay: Antagonist activity at human TRPV4 expressed in HEK293 cells assessed as inhibition of hypotonic solution-induced Ca2+ influx
Sequence (Q9HBA0 whole entry): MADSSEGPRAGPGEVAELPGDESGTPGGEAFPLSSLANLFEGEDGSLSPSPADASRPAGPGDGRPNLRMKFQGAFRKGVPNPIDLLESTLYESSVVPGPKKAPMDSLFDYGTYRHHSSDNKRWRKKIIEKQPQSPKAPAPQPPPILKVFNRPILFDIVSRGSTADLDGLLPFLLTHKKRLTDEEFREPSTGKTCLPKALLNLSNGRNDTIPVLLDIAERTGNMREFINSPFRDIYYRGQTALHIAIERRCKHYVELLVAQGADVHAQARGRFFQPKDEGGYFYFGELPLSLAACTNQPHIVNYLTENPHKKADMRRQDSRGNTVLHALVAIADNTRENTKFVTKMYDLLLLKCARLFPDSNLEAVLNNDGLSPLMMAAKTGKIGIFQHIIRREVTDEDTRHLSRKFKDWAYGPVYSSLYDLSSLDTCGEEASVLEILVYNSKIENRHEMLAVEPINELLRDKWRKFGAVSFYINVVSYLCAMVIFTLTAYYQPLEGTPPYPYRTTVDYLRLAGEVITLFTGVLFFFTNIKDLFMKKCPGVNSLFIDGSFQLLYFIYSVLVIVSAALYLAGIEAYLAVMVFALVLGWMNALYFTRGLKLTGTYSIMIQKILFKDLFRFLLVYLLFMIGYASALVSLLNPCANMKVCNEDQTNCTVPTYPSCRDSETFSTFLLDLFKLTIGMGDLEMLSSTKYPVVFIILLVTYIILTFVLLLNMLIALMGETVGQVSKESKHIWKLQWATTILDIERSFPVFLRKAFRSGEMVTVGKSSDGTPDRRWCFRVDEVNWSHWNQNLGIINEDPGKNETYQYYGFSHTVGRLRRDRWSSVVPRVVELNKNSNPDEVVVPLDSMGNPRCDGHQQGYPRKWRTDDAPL
Observed Property: IC50

Q: Bench note: what IC50 did `O=C(O)c1ccc(S(=O)(=O)N(Cc2ccc(OC(F)(F)F)cc2)c2ncc(C(F)(F)F)cc2Cl)cc1` show?
Ans: > 3 µM
